Tested on: OVCAR-5 ovarian
Assay method text: NCI tumour cell line growth inhibition, 48 h
Provide the recorded TGI for the entries that follow.

Completed entries (count: 5):
- Compound: "COC(=O)[C@H]1C[C@H]1NC(=O)C(CC(=O)OCc1ccccc1)NC(=O)OCc1ccccc1 (stereo partly drawn)"
  TGI: "> 100 µM"
- Compound: "Cc1noc(C)c1-c1cc(O)cc(C(O)c2ccccc2)c1 (stereo not drawn)"
  TGI: "> 100 µM"
- Compound: "Nc1c(-c2nc3ccccc3o2)sc(=S)n1-c1ccc(Cl)cc1"
  TGI: "> 100 µM"
- Compound: "O=C(N/C(=C\\c1cccc([N+](=O)[O-])c1)c1nc2[nH]c(=S)[nH]c(=O)c2[nH]1)c1ccccc1"
  TGI: "> 100 µM"
- Compound: "CC/C=C\\C/C=C\\C[C@H](O)C/C=C1/C(=O)C=C[C@@H]1C/C=C\\CCCC(=O)O"
  TGI: "30 µM"

For every listed record, write down its TGI.
1. CC(C)(C)c1[nH]cnc1/C=c1\[nH]c(=O)/c(=C/c2ccccc2)[nH]c1=O
2. COc1cnc2c(c1)C(=O)c1c-2n(CCCN2CCC(O)CC2)c(=O)c2cc(F)ccc12

86.1 µM
1.6 µM

Requested field: TGI. Item: O=C(CCl)NC(Cc1ccc(F)cc1)C(=O)O (stereo not drawn)
> 100 µM
